# Tested target: 5-hydroxytryptamine receptor 1A (Homo sapiens)
# Experiment description: Inhibition of 5-HT induced [35S]GTP-gamma-S, binding at human cloned 5-HT 1A receptors.
# Format: functional
I'd appreciate it if you marked entries yes when Emin is lower than 8% and no when it is not.

Examples with answers:
{"Compound": "C[C@@H]1C[C@@H](c2cc3cc(F)ccc3s2)CCN1C[C@H](O)COc1cccc2[nH]ccc12", "Category": "no"}
{"Compound": "C[C@H]1C[C@H](c2cc3cc(Cl)ccc3s2)CCN1C[C@H](O)COc1cccc2[nH]ccc12", "Category": "yes"}
{"Compound": "C[C@H]1C[C@H](c2cc3ccccc3s2)CCN1C[C@H](O)COc1cccc2[nH]ccc12", "Category": "yes"}
{"Compound": "C[C@H]1C[C@H](c2cc3c(F)cccc3s2)CCN1C[C@H](O)COc1cccc2[nH]ccc12", "Category": "yes"}
{"Compound": "COc1cccc2sc([C@H]3CCN(C[C@H](O)COc4cccc5[nH]ccc45)[C@H](C)C3)cc12", "Category": "yes"}
{"Compound": "COc1cccc2sc([C@H]3CCN(C[C@H](O)COc4cccc5[nH]ccc45)[C@@H](C)C3)cc12", "Category": "yes"}
{"Compound": "O[C@H](COc1cccc2[nH]ccc12)CN1[C@@H]2CC[C@H]1C[C@H](c1cc3ccccc3s1)C2", "Category": "no"}
{"Compound": "C[C@H]1C[C@H](c2cc3cc(F)ccc3s2)CCN1C[C@H](O)COc1cccc2[nH]ccc12", "Category": "yes"}
{"Compound": "COc1ccc2cc([C@@H]3CCN(C[C@H](O)COc4cccc5[nH]ccc45)[C@@H](C)C3)sc2c1", "Category": "yes"}
{"Compound": "C[C@H]1C[C@H](c2cc3ccc(F)cc3s2)CCN1C[C@H](O)COc1cccc2[nH]ccc12", "Category": "no"}

Regarding Cc1cccc2sc([C@@H]3CCN(C[C@H](O)COc4cccc5[nH]ccc45)[C@@H](C)C3)cc12 , kindly confirm whether its Emin is beneath 8%.
yes

Regarding C[C@H]1C[C@H](c2cc3cccc(F)c3s2)CCN1C[C@H](O)COc1cccc2[nH]ccc12 , kindly confirm whether its Emin is beneath 8%.
yes

Regarding COc1cccc2sc([C@@H]3C[C@H]4CC[C@@H](C3)N4C[C@H](O)COc3cccc4[nH]ccc34)cc12 (stereo in doubt; exo) , kindly confirm whether its Emin is beneath 8%.
yes

Regarding COc1cccc2sc([C@@H]3CCN(C[C@H](O)COc4cccc5[nH]ccc45)[C@H](C)C3)cc12 , kindly confirm whether its Emin is beneath 8%.
yes

Regarding C[C@@H]1C[C@H](c2cc3cc(F)ccc3s2)CCN1C[C@H](O)COc1cccc2[nH]ccc12 , kindly confirm whether its Emin is beneath 8%.
no

Regarding COc1ccc2sc([C@@H]3CCN(C[C@H](O)COc4cccc5[nH]ccc45)[C@@H](C)C3)cc2c1OC , kindly confirm whether its Emin is beneath 8%.
yes
